target: T1, human α4β7 integrin on cells (human, UniProt P13612 34-1032; P26010 20-798); experiment: RPMI8866 cell adhesion to MAdCAM-1
T1 construct: whole, on cells; also called α4β7 cell (Hu); RPMI8866 cells
pIC50: −log10 of the molar value. Numbered stars: 1 amine (or outer) side, 2 acyl side, 3 side chain; on linkers, the order of the positions; unused ones are H or OH. Bridge positions count the residues as written; N and C are the ends. Square brackets hold non-standard residues; d marks the D form. Asp(OMe) = L-aspartic acid beta-methyl ester, COC(=O)C[C@H](N[*:1])C(=O)[*:2]; Phe(4-COOH) = N[C@@H](Cc1ccc(C(=O)O)cc1)C(=O)O; NMeR = CN[C@@H](CCCNC(=N)N)C(=O)O; β3hE = N[C@@H](CCC(=O)O)CC(=O)O; NMeK = CN[C@@H](CCCCN)C(=O)O; Pen = CC(C)(S)[C@H](N)C(=O)O
assay-metric: pIC50

Q: Item Ac-C[NMeR]SDTL[Pen]W[dK]-NH2 (disulfide 1-7; not fully specified (residue 9); printed as (Ac C N-Me-R S D T L Pen W k NH2)2 PEG13, disulfide C-Pen; also: dimer, two subunits joined by PEG13 linker) [SEQ ID NO: 36] has what recorded pIC50?
Ans: < 7.30

Q: Consider next the binder cyclo([Pen][NMeR]SDTL[Pen]WE) (disulfide 1-7; SMILES CC(C)C[C@@H]1NC(=O)[C@H]([C@@H](C)O)NC(=O)[C@H](CC(=O)O)NC(=O)[C@H](CO)NC(=O)[C@H](CCCNC(=N)N)N(C)C(=O)[C@H]2NC(=O)[C@H](CCC(=O)O)NC(=O)[C@H](Cc3c[nH]c4ccccc34)NC(=O)[C@@H](NC1=O)C(C)(C)SSC2(C)C) [SEQ ID NO: 144] in the same way.
Ans: < 5.00

Q: Consider next the binder Ac-[Pen][NMeR]SDTL[Pen]W[dF][dK]-NH2 (disulfide 1-7; not fully specified (residue 10); printed as (Ac Pen N-Me-R S D T L Pen W f k NH2)2 DIG, disulfide Pen-Pen; also: homodimer via DIG linker) [SEQ ID NO: 91] in the same way.
Ans: < 7.00

Q: Consider next the binder Ac-[Pen][NMeR]SDTL[Pen][Phe(4-COOH)][β3hE][NMeK]-NH2 (disulfide 1-7; not fully specified (residue 10); printed as (Ac Pen N-Me-R S D T L Pen F(4-COOH) b-H-E N-Me-K NH2)2 DIG, disulfide Pen-Pen; also: homodimer (…)2 DIG via Lys10 NZ) [SEQ ID NO: 148] in the same way.
Ans: ≥ 8.00

Q: Consider next the binder Ac-[Pen][NMeR]S[Asp(OMe)]TL[Pen]WE[dK]-NH2 (disulfide 1-7; not fully specified (residue 10); printed as (Ac Pen N-Me-R S D(OMe) T L Pen W E k NH2)2 DIG, disulfide Pen-Pen; also: homodimer: two subunits linked by DIG via D-Lys10 side chain) [SEQ ID NO: 73] in the same way.
Ans: ≥ 8.00
